// provenance: patent US20110311550A1

assay target: HCV E1E2 antigen, isolate UKN1B12.16 (hepatitis C virus, isolate UKN1B12.16)
assay name: ELISA, Fab on E1E2 antigen
Assign OD 450 nm to each entry below.
Numbers only, in OD 450 nm.

Reference set (2 entries):
Fab O1 (Fab, V domains shown) VH: VQLLEQSGAEVKKAGESVRLSCKASGYRFGDYWIAWVRQLPGRAPEWMGIIYPDDSDTKYSPSFQGQVTISADKSIRTTFLDWGSLKASDTAIYYCARGCLGAKCYYPHYYYGLDVWGQGTTVIVSS VL: ELTQSPSSLSASVGDRVTITCRATQGIDNYLNWYQQKPGKPPRLLIYGASSLQSGVPSRFSGGGSGTHFTLTITNLQPEDFATYYCQQSYSTPPETFGQGTKVEIKR; 0.17
Fab P6 (Fab, V domains shown) VH: EVQLLESGGGVVQPGKSLTVSCAASGFTFSTFTMHWVRQAPGKWLEWVAVISHDGGTEHYADSVTGRFTISRDNSKNTLHMQMNSLRLEDTAVYFCARGGPAYYLYNDVLTGYYNVVGDFWGQGTLVTVSS VL: ELIQSPGTLFLSSGERATLSCRASQSVSSSNLAWFQHKSGRAPRLLIYGASNRAPDIPDRFSGSGSGTDFTISISRLEPEDFAVYYCQRYGDSPPITFGQGTRLEIKR; 0.26

Next, consider the following binder.
Input: Given Fab V1 (Fab, V domains shown) VH: VQLLEQSGAEVQKPGASVKVSCKPSGYIFTNFGISWVRQAPGQGLEWMAWINTYNGKTTYAQSLQGRVTLTTDPYTNTVFMELRSLRSDDTAVYYCARENEGEYVWGHFRSDYWGQGTLVTVSS VL: ELTQSPSSLSASVGDRVTITCQASQDISNFLNWYQRRPGKAPNLLIYDATHLETGVPSRFSGSGFGTHFTLTINSLQPEDIGTYYCQHFDDVPSFTFGPGTKVDLKR , respond with its OD 450 nm.
Output: 0.16
